PROPERTY_NAME: melting point

Completed entries (count: 3):
MOLECULE: O=C(O)[C@H](Cc1ccccc1)NC(=O)[C@@H]1CCCN1S(=O)(=O)c1ccc(Cl)cc1 [Example 10]
PROPERTY_NAME: melting point
RESULT: 69 to 71 °C

MOLECULE: COC(=O)c1ccccc1S(=O)(=O)N1CCC[C@H]1C(=O)N[C@@H](Cc1ccccc1)C(=O)O [Example 18]
PROPERTY_NAME: melting point
RESULT: 163 to 165 °C

MOLECULE: Cc1ccc(S(=O)(=O)N2CCC[C@H]2C(=O)NC(Cc2ccccc2)C(=O)NCCC(=O)O)cc1 (mixture of isomers) [Example 45]
PROPERTY_NAME: melting point
RESULT: 91 to 95 °C

# context switch: different molecule, same melting point
Query :: Can you share its melting point? I mean this molecule: O=C(O)[C@H](Cc1ccccc1)NC(=O)[C@@H]1CCCN1S(=O)(=O)c1ccc([N+](=O)[O-])cc1 [Example 27]
Result :: 70 to 80 °C

###

Non-standard residues stand in square brackets, D forms with d. Residues, ends and D or L forms follow the SMILES beside them. *: point of attachment. Tos = Cc1ccc(S(=O)(=O)*)cc1; Thz = O=C(O)[C@@H]1CSCN1
PROPERTY_NAME: melting point

Completed entries (count: 2):
COMPOUND: Cc1ccc(S(=O)(=O)N2CCC[C@H]2C(=O)N[C@@H](Cc2ccccc2)C(=O)NOCc2ccccc2)cc1
RESULT: 127 to 130 °C
//
COMPOUND: Cc1ccc(S(=O)(=O)N2CCC[C@H]2C(=O)NC(Cc2nc[nH]n2)C(=O)O)cc1 (mixture of isomers)
RESULT: 153 to 163 °C

# context switch: different compound, same melting point
Query :: Can you share its melting point? I mean this compound: Cc1ccc(S(=O)(=O)N2CSC[C@H]2C(=O)N[C@@H](Cc2ccccc2)C(=O)O)cc1 [Example 20] (Tos-[Thz]-Phe-OH)
Result :: 60 to 65 °C

Reference source: patent US6362341B1
